# assay.summary: CCTE_Mundy_HCI_Cortical_Synap_Neur_Matur_NeuriteLength: CCTE's Synaptogenesis and Neurite Maturation Assay in rat cortical cells for Neurite Length, Mundy Lab (AID 2284214)
Activity calls are given as the source filed them. The calls were made as follows: active = hit-call score of the fitted dose curve at least 0.9, where 1 is the maximum; inactive = score below 0.9.
Outcome (select one): active, inactive

- molecule: "CCC1(c2ccccc2)C(=O)N=C(O)NC1=O (centres undefined)"
  class: "inactive"
- molecule: "CO/N=C(/C(=O)OC)c1ccccc1COc1ccccc1C"
  class: "active"
- molecule: "CCCCC(CC)COP(=O)(Oc1ccccc1)Oc1ccccc1 (centres undefined)"
  class: "inactive"

Which outcome was entered for the molecule CCOc1ccc(C(C)(C)COCc2cccc(Oc3ccccc3)c2)cc1 in this test? active

---

# assay.summary: ATG_PBREM_CIS: Attagene CIS-FACTORIAL HepG2 Assay for human Phenobarbital-responsive Enhancer Module (PBREM) (AID 2282955)
# condition: HepG2 PBREM cis-reporter, Attagene multiplexed transcription; actives raise or lower the signal
Activity calls are given as the source filed them. Rule for the calls: active = hit-call score of the fitted dose curve at least 0.9, where 1 is the maximum; inactive = score below 0.9.
Outcome field: choose from active, inactive

Consider the worked cases shown below.
- compound: "CNC(=O)Oc1ccc(N(C)C)c(C)c1"
  class: "inactive"
- compound: "CC(=O)c1ccc(-c2ccccc2)cc1"
  class: "inactive"
- compound: "O=S(=O)(c1ccc(O)cc1)c1ccc(O)cc1"
  class: "inactive"
- compound: "Nc1ccc(Sc2ccc(N)cc2)cc1"
  class: "active"
- compound: "ClC1=C(Cl)C2(Cl)C3C(Cl)C(Cl)CC3C1(Cl)C2(Cl)Cl (stereo not drawn)"
  class: "inactive"

Check the results log: what was the call for COP(=O)(O)OC ? inactive

For Oc1ccc(I)cc1 , which call appears in the assay record? inactive

Call for entry COCCOCCO : inactive

Called result for Cc1ccc(O)cc1C inactive

Assay outcome for CCOc1ccc(C(C)(C)COCc2cccc(Oc3ccccc3)c2)cc1 : what was it? inactive

Test call for this compound, please: OCC(F)(F)OC(F)(F)C(F)(F)OC(F)(F)C(F)(F)OC(F)(F)F inactive

Assay outcome for CCN(CC)C1CCCCC1 : what was it? inactive

Just curious, what result did C=C(C)C(=O)OCC1CO1 (stereo not drawn) get here? inactive

GET /call?item= COC(N)=O returns the recorded outcome of this test. inactive

How was CN(C)C(=O)Cl classified in this test? inactive

Lab log entry: O=P(Oc1ccccc1)(Oc1ccccc1)Oc1ccccc1 — outcome as called in the assay? inactive

// param item: FC(F)(F)C(F)(C(F)(F)F)C(F)(F)C(F)(F)CC1CO1 (stereo not drawn) ; yields the recorded call inactive

Assay result, entry O=S1(=O)OCC2C(CO1)C1(Cl)C(Cl)=C(Cl)C2(Cl)C1(Cl)Cl (stereo not drawn) — outcome? inactive

Dear all, I need the recorded test outcome for Cc1ccc(N)cc1N , thank you. inactive

Which outcome did this test record for the compound CC(O)C(F)(F)C(F)(F)F (stereo not drawn) ? inactive

Which outcome was entered for the compound CCOP(=O)(O)C(N)=O in this test? inactive

Could you check what this test reported for CC(C)(C)OOC(C)(C)C ? inactive

---

# Read-out: TIMP metallopeptidase inhibitor 1 (TIMP1), TIMP1 (gene 7076)
# assay.summary: BSK_hDFCGF_TIMP1: BioMAP Diversity Plus: hDFCGF Assay for TIMP metallopeptidase inhibitor 1 (TIMP1) Biomarker Activity (AID 2283062)
# condition: primary human foreskin fibroblasts; actives raise or lower the signal
Activity calls are given as the source filed them. How the source made its calls: active means hit-call score of the fitted dose curve at least 0.9, where 1 is the maximum; inactive means score below 0.9.
Respond with a class label; see active, inactive

- compound: "Cc1ccc(O)cc1C"
  class: "inactive"

For the next question, use this compound.
Kindly provide the recorded test outcome for the following compound: CCCCN(CCCC)N=O inactive

The reported numbers originate from PubChem BioAssay (EPA / NIEHS).
